- tgt: T1, human IFN-ω (human, UniProt P05000 24-195)
- T1 construct: Recombinant, HEK293; also called interferon omega
- procedureSummary: ProteOn SPR, cell supernatant;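 note: each binding measurement used just a single antigen concentration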
recordedMetric: Kd (nM)
Respond with the bare value in nM.

IFWM3399 (antibody, IgG1, V domains shown, mAb; IgG1/kappa said of the parent and of selected mAbs; also called IFWB3134) VH: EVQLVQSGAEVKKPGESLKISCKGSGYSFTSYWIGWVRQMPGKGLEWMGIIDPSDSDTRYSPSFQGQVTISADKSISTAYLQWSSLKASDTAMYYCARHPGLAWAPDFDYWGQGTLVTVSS VL: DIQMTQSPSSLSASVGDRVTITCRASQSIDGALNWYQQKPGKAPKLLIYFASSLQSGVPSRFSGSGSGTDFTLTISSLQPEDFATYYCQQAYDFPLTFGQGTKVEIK has a reported Kd of 0.03

IFWM3393 (antibody, IgG1, V domains shown, mAb; IgG1/kappa said of the parent and of selected mAbs; also called IFWB3128) VH: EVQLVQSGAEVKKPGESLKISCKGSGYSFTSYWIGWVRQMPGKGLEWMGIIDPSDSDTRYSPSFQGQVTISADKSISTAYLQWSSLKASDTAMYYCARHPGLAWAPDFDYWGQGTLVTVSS VL: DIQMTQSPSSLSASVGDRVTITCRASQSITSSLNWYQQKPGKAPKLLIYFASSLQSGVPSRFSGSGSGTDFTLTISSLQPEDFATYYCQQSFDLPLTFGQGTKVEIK has a reported Kd of 0.057

IFWM3417 (antibody, IgG1, V domains shown, mAb; IgG1/kappa said of the parent and of selected mAbs; also called IFWB3152) VH: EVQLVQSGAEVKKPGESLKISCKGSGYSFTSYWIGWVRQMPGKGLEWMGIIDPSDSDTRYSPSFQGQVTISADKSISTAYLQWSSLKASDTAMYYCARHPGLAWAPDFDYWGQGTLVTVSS VL: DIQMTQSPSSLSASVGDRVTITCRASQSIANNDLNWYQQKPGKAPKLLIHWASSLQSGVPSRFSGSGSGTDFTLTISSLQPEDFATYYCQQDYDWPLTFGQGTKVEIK has a reported Kd of 0.029

Data provenance is patent US20150368338A1.
